For each of the molecules below, state its MIC.
- System: Enterococcus faecium
- Test protocol: Antimicrobial activity against Enterococcus faecium MC38 harboring erythromycin resistance rRNA methylase B and oxazolidinone-phenicol transferable resistance gene assessed as inhibition of visible growth of bacteria incubated for 20 hrs by broth microdilution method
- Format: functional
Lab book: enter the figure in µg/mL, no units written.

Answer with the recorded MIC for the molecule listed here: COc1ccc2nc3c(c(C(=O)O)c2c1)CC(C)C/C3=C\c1cccc(-c2ccc(Cl)c(C(F)(F)F)c2)c1 (racemic)
4

Answer with the recorded MIC for the molecule listed here: CCCCCCc1ccc(-c2ccc(/C=C3\CC(C)Cc4c3nc3ccc(OC)cc3c4C(=O)O)cn2)cc1 (racemic)
4

Answer with the recorded MIC for the molecule listed here: O=C(O)c1cn(C2CC2)c2cc(N3CCNCC3)c(F)cc2c1=O
8

Answer with the recorded MIC for the molecule listed here: CC(=O)NC[C@H]1CN(c2ccc(N3CCOCC3)c(F)c2)C(=O)O1
2
